# study_target: UniProtKB P55055
# Sequence (P55055 whole entry): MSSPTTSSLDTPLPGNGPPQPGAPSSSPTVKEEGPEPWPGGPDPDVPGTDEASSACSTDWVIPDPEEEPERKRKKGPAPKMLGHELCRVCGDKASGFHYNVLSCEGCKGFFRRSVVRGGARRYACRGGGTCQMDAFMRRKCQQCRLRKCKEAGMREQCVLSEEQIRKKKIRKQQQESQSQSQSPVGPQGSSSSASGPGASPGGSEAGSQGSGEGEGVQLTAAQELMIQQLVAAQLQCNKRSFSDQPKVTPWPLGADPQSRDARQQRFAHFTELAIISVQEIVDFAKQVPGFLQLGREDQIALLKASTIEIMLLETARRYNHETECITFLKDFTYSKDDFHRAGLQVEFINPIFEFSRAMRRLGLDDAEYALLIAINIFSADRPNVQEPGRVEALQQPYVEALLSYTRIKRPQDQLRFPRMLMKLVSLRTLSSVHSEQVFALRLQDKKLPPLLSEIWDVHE
# Type: functional, cell-based
Active and inactive are the calls of the source.

{"columns": ["smiles_input", "EC50"],
 "data": [
  ["Cc1ccnc(NC(=O)/C=C/c2cccs2)c1", "> 67.6 µM (inactive)"],
  ["O=c1c2ccccc2nnn1CSc1ccccc1F", "> 67.5 µM (inactive)"],
  ["O=C(NCCCn1ccnc1)c1cc(-c2cccs2)on1", "> 67.5 µM (inactive)"],
  ["Cc1cccc(NC(=O)c2ccc3ccccc3n2)c1C", "> 67.5 µM (inactive)"]
]}

###

# study_target: NAD-dependent protein deacylase sirtuin-5, mitochondrial (Homo sapiens, UniProt Q9NXA8)
# Sequence (Q9NXA8 whole entry): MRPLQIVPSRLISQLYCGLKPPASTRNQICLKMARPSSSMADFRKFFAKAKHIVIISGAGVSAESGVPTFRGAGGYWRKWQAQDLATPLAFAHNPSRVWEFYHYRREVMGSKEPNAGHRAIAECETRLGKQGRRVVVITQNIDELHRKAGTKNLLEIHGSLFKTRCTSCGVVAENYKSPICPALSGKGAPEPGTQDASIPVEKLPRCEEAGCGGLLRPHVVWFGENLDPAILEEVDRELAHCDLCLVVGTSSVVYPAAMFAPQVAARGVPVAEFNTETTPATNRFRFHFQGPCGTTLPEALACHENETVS
# procedure_text: sirtuin-5 deacylation blockers, concentration series – biochemical, fluorescence imaging, cherry-pick, set 5, dose response (AID 720591);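 further: desuccinylation of succinyl peptide AMC substrate read as fluorescence after trypsin release; potency of inhibitors that lower fluorescence and may act on trypsin instead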
The source made the active and inactive calls.
Labels: active, inactive

{"columns": ["molecule", "classification"],
 "data": [
  ["Cc1cc(C)c(NC(=O)CSc2nc3cc(Br)c[nH]c-3n2)c(C)c1", "inactive"],
  ["CCc1ccc(NS(=O)(=O)c2c(C)noc2C)cc1", "inactive"],
  ["CC1C(=O)N2CCCc3cc(S(=O)(=O)NCCc4ccccc4)cc1c32 (stereo not given)", "inactive"],
  ["NC(=O)c1ccc(C(F)(F)F)cn1", "inactive"],
  ["N#Cc1c(SCC(=O)Nc2nncs2)sc2c(O)cc(=O)[nH]c12", "active"]
]}

###

# study_target: Corticotropin-releasing factor receptor 2/Corticotropin-releasing factor-binding protein (Homo sapiens, UniProt P24387+Q13324)
# procedure_text: activators of CRF receptor 2 with binding protein – uHTS hits, confirmation (AID 602473)
# Type: functional
# conditions: read-out: EC50_Mean
Active and inactive are the calls of the source.
Possible outcomes: active, inactive

{"columns": ["compound", "classification"],
 "data": [
  ["CCOc1ccc(-n2c(SCC(=O)NCc3ccco3)nc3c4ccccc4nc-3c2O)cc1", "inactive"],
  ["Cc1cccn2c(=O)c3cc(C#N)/c(=N\\C(=O)c4cccnc4)n(CC4CCCO4)c3nc12 (stereo unspecified)", "inactive"],
  ["O=C(O)C1OC1(c1ccccc1Cl)c1ccccc1Cl (stereo unspecified)", "inactive"],
  ["COc1cccc(C2C(C(=O)c3ccc(C)o3)=C(O)C(=O)N2CCN2CCOCC2)c1OC (stereo unspecified)", "inactive"],
  ["CN(C)c1ccc(/N=C/c2nc(-c3ccccc3)oc2O)cc1", "active"],
  ["Cc1nc2c(c(=O)c3ccccc3n2C)c(=O)n1C1CCCCCC1", "active"]
]}

###

# study_target: Corticotropin-releasing factor receptor 2/Corticotropin-releasing factor-binding protein (Homo sapiens, UniProt P24387+Q13324)
# Sequence (Q13324 whole entry): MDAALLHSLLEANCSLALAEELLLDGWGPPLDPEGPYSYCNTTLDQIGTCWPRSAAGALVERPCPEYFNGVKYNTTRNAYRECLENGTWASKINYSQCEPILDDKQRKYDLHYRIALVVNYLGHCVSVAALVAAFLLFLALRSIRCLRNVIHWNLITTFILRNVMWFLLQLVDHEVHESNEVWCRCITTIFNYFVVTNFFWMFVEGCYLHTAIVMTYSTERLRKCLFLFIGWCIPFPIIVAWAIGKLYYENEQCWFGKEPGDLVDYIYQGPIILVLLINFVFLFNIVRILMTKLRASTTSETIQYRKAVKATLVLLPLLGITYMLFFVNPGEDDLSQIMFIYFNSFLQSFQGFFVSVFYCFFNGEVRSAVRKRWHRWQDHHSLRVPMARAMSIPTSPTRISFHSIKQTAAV
# Sequence (P24387 whole entry): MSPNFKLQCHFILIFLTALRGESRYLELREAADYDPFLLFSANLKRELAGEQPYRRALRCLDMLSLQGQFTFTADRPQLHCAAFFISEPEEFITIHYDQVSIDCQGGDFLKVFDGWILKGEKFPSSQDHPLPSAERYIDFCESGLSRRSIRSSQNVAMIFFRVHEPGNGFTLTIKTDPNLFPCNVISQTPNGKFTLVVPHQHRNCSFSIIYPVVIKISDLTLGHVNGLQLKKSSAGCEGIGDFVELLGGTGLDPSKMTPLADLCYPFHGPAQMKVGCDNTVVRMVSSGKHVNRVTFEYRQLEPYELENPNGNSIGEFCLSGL
# procedure_text: activators of CRF receptor 2 with binding protein – uHTS hits, confirmation (AID 602473)
# Assay type: functional
# conditions: read-out: EC50_Mean
Active and inactive are the calls of the source.
Outcomes: TRUE for active, FALSE for inactive

{"columns": ["molecule", "classification"],
 "data": [
  ["CCOC(=O)/C(=C\\c1ccc(N2CCC(c3ccccc3)=N2)cc1)C(C)=O", "TRUE"],
  ["CCN(CC(=O)Nc1ccc(OC)cc1)C(=O)c1cc(S(=O)(=O)N2CCOCC2)ccc1N1CCCC1", "FALSE"],
  ["CN(C)c1ncnc2c1N=C1CC(C)(C)CC(NCCCC(=O)O)=C1S2", "FALSE"],
  ["O=C(NCc1cccc(Cl)c1)c1cccc(S(=O)(=O)N2CCCC2)c1", "FALSE"],
  ["CC(c1ccccc1C(O)(c1ccccc1)c1ccccc1)N(C)C (stereo not given)", "TRUE"]
]}
